- assay system: T1, L-selectin (LS-Rg) (Homo sapiens, UniProt P14151 P14151:39-332)
- T1 sequence: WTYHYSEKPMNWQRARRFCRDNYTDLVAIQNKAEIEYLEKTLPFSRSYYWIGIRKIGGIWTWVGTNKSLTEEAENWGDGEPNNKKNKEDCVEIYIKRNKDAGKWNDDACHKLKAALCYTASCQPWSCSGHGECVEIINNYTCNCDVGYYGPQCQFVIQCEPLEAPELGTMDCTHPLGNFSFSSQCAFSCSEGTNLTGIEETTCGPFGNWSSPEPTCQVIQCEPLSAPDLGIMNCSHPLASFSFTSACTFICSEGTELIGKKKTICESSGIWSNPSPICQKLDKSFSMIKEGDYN
- protocol details: filter; 37 C, SHMCK-140
- condition label: tags: human IgG2 Fc fusion; chain copies: dimer; label: 32P
pKd: −log10 of the molar value.
Assign 1 to entries whose pKd meets or exceeds 10; assign -1 to the rest.

binder="LF1523 (ssRNA, 2'-F on all C and U) RNA: GGGAGGACGAUGCGGUUCUUAAGCAGCGCGUCAAUCGAGCUAACCCAGACGACUCGCCCGA" label_class=-1
binder="LF1613 (ssRNA, 2'-F on all C and U) RNA: GGGAGGACGAUGCGGUGCUAUUCUUAAGCGGCGUGUUUUUCAAGCCAAUAUCAUCAGACGACUCGCCCGA" label_class=1
binder="LF1518 (ssRNA, 2'-F on all C and U) RNA: GGGAGGACGAUGCGGGCAAAUUGCAUGCGUUUUCGAGUGCUUGCUCAGACGACUCGCCCGA" label_class=-1
binder="LF1508 (ssRNA, 2'-F on all C and U) RNA: GGGAGGACGAUGCGGGACCCUUAGGCAACGUGUUUUCAAGUUGGUCAGACGACUCGCCCGA" label_class=-1
binder="LF1615 (ssRNA, 2'-F on all C and U) RNA: GGGAGGACGAUGCGGCGUAACUUCAGCGGUGUGUUAAUCAAGCCUUACGCCAUCUCAGACGACUCGCCCGA" label_class=-1
binder="LF1610 (ssRNA, 2'-F on all C and U) RNA: GGGAGGACGAUGCGGAGGGUCUUAAGCAGUGUGAUAAUCAAACUACUCUCCGUGUCAGACGACUCGCCCGA" label_class=-1

Source: patent US20030059769
